- system tested: UniProt P23526
- Sequence (P23526 whole entry): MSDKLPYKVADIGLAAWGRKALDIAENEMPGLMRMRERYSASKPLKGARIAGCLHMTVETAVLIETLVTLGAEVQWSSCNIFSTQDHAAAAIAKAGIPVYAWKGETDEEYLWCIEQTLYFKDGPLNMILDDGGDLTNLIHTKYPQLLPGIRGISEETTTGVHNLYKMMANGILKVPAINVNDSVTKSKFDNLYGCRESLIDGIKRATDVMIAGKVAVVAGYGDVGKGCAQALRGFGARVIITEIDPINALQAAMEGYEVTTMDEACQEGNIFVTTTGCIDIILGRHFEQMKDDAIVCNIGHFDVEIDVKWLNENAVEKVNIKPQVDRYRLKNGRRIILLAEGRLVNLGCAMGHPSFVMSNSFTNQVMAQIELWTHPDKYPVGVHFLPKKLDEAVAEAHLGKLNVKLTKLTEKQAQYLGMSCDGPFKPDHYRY
- test summary: Inhibition of human recombinant placental SAH
Could you please report measured pIC50 for the items listed next?
Reminder that pIC50 means the negative base-10 logarithm of the concentration expressed in mol/L.

Problem: What does the data say about its pIC50? Entry: NC[C@H]1O[C@@H](n2cnc3c(N)ncnc32)[C@H](O)[C@@H]1O
Result: 4.12

Problem: What does the data say about its pIC50? Entry: [N-]=[N+]=NC[C@H]1O[C@@H](n2cnc3c(N)ncnc32)[C@H](O)[C@@H]1O
Result: 4.54

Problem: What does the data say about its pIC50? Entry: NC(=O)NC[C@H]1O[C@@H](n2cnc3c(N)ncnc32)[C@H](O)[C@@H]1O
Result: 5.12
